- TARGET UNDER TEST: T1, human BCMA (B cell maturation antigen) (human, UniProt Q02223 1-184)
- T1 construct: whole, on cells; also called hBCMA; TNFRSF17
- T1 sequence (looked up): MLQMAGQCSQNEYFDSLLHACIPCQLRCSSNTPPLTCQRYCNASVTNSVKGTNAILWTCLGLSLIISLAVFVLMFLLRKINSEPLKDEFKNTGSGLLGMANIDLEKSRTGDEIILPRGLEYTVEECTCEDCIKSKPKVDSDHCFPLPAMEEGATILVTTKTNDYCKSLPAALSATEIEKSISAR
- MEASUREMENT DESCRIPTION: flow cytometry, FN3 domain titration on HEK293F cells transiently expressing human BCMA, anti-His Alexa-488 detection, PRISM one-site specific binding fit
- Design: unit not given here
VALUE KIND: Bmax

F01 BCMA-specific FN3 domain (designed binder, Detected with an anti-His mAb, so the protein tested carried a His tag) MLPAPKNLVVSRVTEDSARLSWTAPDAAFDSFIIVYRENIETGEAIVLTVPGSERSYDLTGLKPGTEYYVQIAGVKGGNISFPLSAIFTT | 51600
E02 BCMA-specific FN3 domain (designed binder, Detected with an anti-His mAb, so the protein tested carried a His tag) MLPAPKNLVVSRVTEDSARLSWTAPDAAFDSFVIVYSEPDVCGEAIVLTVPGSERSYDLTGLKPGTEYWVRIAGVKGGDFSRPLSAIFTT | 56700
F11 BCMA-specific FN3 domain (designed binder, Detected with an anti-His mAb, so the protein tested carried a His tag) MLPAPKNLVVSRVTEDSARLSWTAPDAAFDSFPIRYIETLIWGEAIWLDVPGSERSYDLTGLKPGTEYVVVIDGVKGGDHSKPLVATFTT | 58200

# context switch: different binder, same Bmax
Data request, read-out Bmax, for D10 BCMA-specific FN3 domain (designed binder, Detected with an anti-His mAb, so the protein tested carried a His tag) MLPAPKNLVVSRITEDSARLSWTAPDAAFDSFPIRYIETLIWGEAIWLYVPGSERSYDLTGLKPGTEYTVVIDGVKGGGRSQPLVASFTT
57800
